Biological target: human OCT3 (Homo sapiens)
Sequence (O75751 whole entry): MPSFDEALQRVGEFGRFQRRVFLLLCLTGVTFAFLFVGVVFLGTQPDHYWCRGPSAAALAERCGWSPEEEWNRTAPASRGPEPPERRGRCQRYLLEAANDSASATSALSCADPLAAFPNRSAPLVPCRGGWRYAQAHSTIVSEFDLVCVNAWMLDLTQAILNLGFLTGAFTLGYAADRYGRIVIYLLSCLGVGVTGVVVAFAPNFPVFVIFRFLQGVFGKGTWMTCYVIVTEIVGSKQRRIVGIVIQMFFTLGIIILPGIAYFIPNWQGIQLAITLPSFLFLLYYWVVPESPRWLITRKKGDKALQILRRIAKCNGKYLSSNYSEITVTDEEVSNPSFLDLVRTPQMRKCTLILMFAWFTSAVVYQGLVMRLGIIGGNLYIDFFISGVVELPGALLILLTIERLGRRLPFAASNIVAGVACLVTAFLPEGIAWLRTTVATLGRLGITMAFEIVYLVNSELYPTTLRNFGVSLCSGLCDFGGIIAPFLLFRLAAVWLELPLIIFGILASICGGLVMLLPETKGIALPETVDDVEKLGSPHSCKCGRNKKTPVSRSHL
Test: Inhibition of OCT3-mediated metformin uptake in stably transfected HEK cells
Conditions: 5 µM [14C]metformin uptake, 5 min, HEK-OCT3, means ± SE of 3 experiments
readout_label: IC50 (µM)

• COc1ccnc(C[S+]([O-])c2nc3ccc(OC(F)F)cc3[nH]2)c1OC (centres unmarked) [Pantoprazole] = 22.9
• COc1ccc2[nH]c([S+]([O-])Cc3ncc(C)c(OC)c3C)nc2n1 (centres unmarked) [Tenatoprazole] = 14.7
• COc1ccc2[nH]c([S+]([O-])Cc3ncc(C)c(OC)c3C)nc2c1 (centres unmarked) [Omeprazole] = 22
• Cc1c(OCC(F)(F)F)ccnc1C[S+]([O-])c1nc2ccccc2[nH]1 (centres unmarked) [Lansoprazole] = 3.1
• COCCCOc1ccnc(C[S+]([O-])c2nc3ccccc3[nH]2)c1C (centres unmarked) [Rabeprazole] = 3
